GI50 overview
- System: UACC-257
- RUN_DESCRIPTION: NCI tumour cell line growth inhibition, 48 h
Calls of active or inactive are those of the source. Cut-off read from the data, not from the text of the source: active = GI50 up to about 1.1 µM and inactive = higher.

Some molecules with known GI50 results, for comparison:
# MOLECULE, MEASURED_ATTRIBUTE, VALUE_MEASURED
data = [
    ("CC12c3c4cc(Br)cc3Oc3cc(Br)cc(c31)Oc1cc(Br)cc(c12)O4", "GI50", "36.9 µM (inactive)"),
    ("Cc1ccc(Cl)c2c(=O)cc(-c3ccccc3)[nH]c12", "GI50", "58.1 µM (inactive)"),
    ("CCn1ncc2c(=O)n3ncn(-c4ccc(Br)cc4)c3nc21", "GI50", "> 100 µM (inactive)"),
    ("Cc1ccc(OCCn2cc(Nc3ccccc3)c(=O)n(CCOc3ccc(C)cc3)c2=O)cc1", "GI50", "> 100 µM (inactive)"),
    ("N#CCc1c(F)c(F)c(F)c(F)c1F", "GI50", "> 100 µM (inactive)"),
    ("O=C(c1nc2ccc(Cl)cc2[nH]c1=O)C(O)c1cccc([N+](=O)[O-])c1 (stereo unspecified)", "GI50", "> 100 µM (inactive)"),
    ("N#CC1CCCCCCCCCCC(=O)N(CCCl)C1=O (stereo unspecified)", "GI50", "> 100 µM (inactive)"),
    ("O=C1c2ccccc2C(=O)N1n1c(Cc2ccc(Cl)cc2)n[nH]c1=O", "GI50", "> 100 µM (inactive)"),
]

Data request: Query (molecule): Cn1c(=O)nc2n(CCO)ccnc-2c1=O ; field requested: GI50
Data returned: > 100 µM (inactive)

Data request: Query (molecule): Cc1ccc(/C=C2\CCCC(C(NO)c3ccc(C)cc3)C2=NO)cc1 (stereo unspecified) ; field requested: GI50
Data returned: 29.6 µM (inactive)

Data request: Query (molecule): CCOC(=O)Nc1cc2ccccc2c(/N=N/c2ccccc2)c1O ; field requested: GI50
Data returned: > 100 µM (inactive)

----------
- Test system: OVCAR-4
- RUN_DESCRIPTION: NCI tumour cell line growth inhibition, 48 h
Active and inactive are the calls of the source. Rule as the data show it: active = GI50 up to about 1.1 µM and inactive = higher.
MEASURED_ATTRIBUTE: GI50

# COMPOUND, MEASURED_ON, VALUE_MEASURED
rows = [
    ("Cn1cnc([N+](=O)[O-])c1Sc1nc2cc(Cl)c(F)cc2[nH]1", "OVCAR-4", "4.34 µM (inactive)"),
    ("CCOC(=O)C(C(=O)OCC)S(C)(=O)=O", "OVCAR-4", "> 100 µM (inactive)"),
    ("Cc1cc(=O)n(-c2ccccc2C)c(C)n1", "OVCAR-4", "> 100 µM (inactive)"),
    ("COc1c(O)ccc(/C=N/NC(=S)NCOCCOC(C)=O)c1OC", "OVCAR-4", "> 100 µM (inactive)"),
    ("CC(=O)n1cc(C2CC23N=C(c2ccccc2)OC3=O)c2ccccc21 (stereo unspecified)", "OVCAR-4", "16.3 µM (inactive)"),
]

Data request: For OVCAR-4, provide GI50 of COc1cccc(CSCC(=O)O)c1 please.
Data returned: > 100 µM (inactive)

----------
GI50 overview
- System: IGROV-1
- RUN_DESCRIPTION: NCI tumour cell line growth inhibition, 48 h
The source made the active and inactive calls. Rule as the data show it: active = GI50 up to about 1.1 µM and inactive = higher.

Some molecules with known GI50 results, for comparison:
# MOLECULE, VALUE_MEASURED
rows = [
    ("NC(=O)C(=CNC(=S)Nc1ccc(Cl)c(Cl)c1)C(N)=O", "92.7 µM (inactive)"),
    ("COC(Cc1ccccc1)NC(C)=O (stereo unspecified)", "> 100 µM (inactive)"),
    ("C#CCOC(=O)C(N)CC(N)=O (stereo unspecified)", "> 100 µM (inactive)"),
    ("CCCC#CCOC(=O)c1cc([N+](=O)[O-])cc([N+](=O)[O-])c1", "> 100 µM (inactive)"),
    ("CC1=N[C@](C)(C2CC3C=CC2C3=O)COC1=O (stereo partly specified)", "> 100 µM (inactive)"),
]

Data request: For IGROV-1, provide GI50 of O=C1C(=CNc2ccccc2Cl)C(=O)N(c2ccccc2)C(=O)N1c1ccccc1 please.
Data returned: > 100 µM (inactive)

Data request: For IGROV-1, provide GI50 of C=CC(C)C1(CCCOCc2ccccc2)C(=S)N2CCC3(CC24CCCC14)OCCO3 (stereo unspecified) please.
Data returned: > 100 µM (inactive)

Data request: For IGROV-1, provide GI50 of CN(C)CCC(O)(c1ccccc1)C(O)(CCN(C)C)c1ccccc1 (stereo unspecified) please.
Data returned: > 100 µM (inactive)

Data request: For IGROV-1, provide GI50 of O=C(c1ccco1)n1c2ccc(Br)cc2c2nc3ccccc3nc21 please.
Data returned: 19.4 µM (inactive)

Data request: For IGROV-1, provide GI50 of CCCCCCCSc1nc2c(C(=O)OCC)ncn2c2ccccc12 please.
Data returned: > 100 µM (inactive)

Data request: For IGROV-1, provide GI50 of CCN1CCC(O)(c2ccc(Cl)c(Cl)c2)C(C(=O)c2ccc(Cl)c(Cl)c2)C1 (stereo unspecified) please.
Data returned: 20.6 µM (inactive)

Source: ChEMBL document CHEMBL1201862
